experiment: CEETOX_H295R_PROG: CeeTox H295R High-throughput Steroidogenesis Assay for Progesterone (PROG) (AID 2283442)
test context: actives raise or lower the signal
Active and inactive are the calls of the source. How the source made its calls: active means hit-call score of the fitted dose curve at least 0.9, where 1 is the maximum; inactive means score below 0.9.
Pick one and only one: true = active, false = inactive

Worked examples follow.
[[record]]
molecule = "CC1(C)C(C=C(Cl)Cl)C1C(=O)OC(C#N)c1ccc(F)c(Oc2ccccc2)c1 (stereo not drawn)"
discrete_label = "false"

[[record]]
molecule = "CCC(C)Nc1c([N+](=O)[O-])cc(C(C)(C)C)cc1[N+](=O)[O-] (stereo not drawn)"
discrete_label = "true"

[[record]]
molecule = "CNC(=O)Oc1ccccc1OC(C)C"
discrete_label = "false"


Recorded test call requested for Oc1cc(Cl)ccc1Oc1ccc(Cl)cc1Cl
false

Recorded test call requested for CC(C)N(C(=O)COc1nnc(C(F)(F)F)s1)c1ccc(F)cc1
false

Recorded test call requested for CCN(CC)C(=O)SCc1ccc(Cl)cc1
false

Recorded test call requested for CC(C)OC(=O)Nc1cccc(Cl)c1
false

Recorded test call requested for CCCN(CCC)c1c([N+](=O)[O-])cc(C(F)(F)F)cc1[N+](=O)[O-]
false

----------
Read-out: solute carrier (SLC22A1), SLC22A1 (gene 6580)
experiment: LTEA_HepaRG_SLC22A1: Life Technologies and Expression Analysis (LTEA) Assay for solute carrier (SLC22A1) using HepaRG (AID 2283524)
test context: mRNA level, 48 h; actives raise or lower the signal
Experimental: LTEA_HepaRG is a cell based, multiplexed-readout assay that uses HepaRG, a human liver cell line, with measurements taken at 48 hours after chemical dosing on a 96-well plate.LTEA_HepaRG_SLC22A1 is one of 102 assay component(s) measured in the LTEA HepaRG cell culture assay. It is a marker of NR mediated transport.Data from the assay component LTEA_HepaRG_SLC22A1 was analyzed into 1 endpoint. […]
Activity calls are given as the source filed them. Rule for the calls: active = hit-call score of the fitted dose curve at least 0.9, where 1 is the maximum; inactive = score below 0.9.
Pick one and only one: active, inactive

Worked examples follow.
[[record]]
structure_notation = "CC(C)N(C(=O)COc1nnc(C(F)(F)F)s1)c1ccc(F)cc1"
discrete_label = "active"

[[record]]
structure_notation = "O=C1c2ccccc2C(=O)N1SC(Cl)(Cl)Cl"
discrete_label = "inactive"


Then there is this molecule:
Recorded test call requested for CNC(=O)Oc1ccccc1OC(C)C
inactive

----------
Read-out: solute carrier (SLC10A1), SLC10A1 (gene 6554)
experiment: LTEA_HepaRG_SLC10A1: Life Technologies and Expression Analysis (LTEA) Assay for solute carrier (SLC10A1) using HepaRG (AID 2283657)
test context: mRNA level, 48 h; actives raise or lower the signal
Activity calls are given as the source filed them. Rule for the calls: active = hit-call score of the fitted dose curve at least 0.9, where 1 is the maximum; inactive = score below 0.9.
Pick one and only one: active, inactive

Worked examples follow.
[[record]]
compound = "CCC(C)Nc1c([N+](=O)[O-])cc(C(C)(C)C)cc1[N+](=O)[O-] (configuration not stated)"
discrete_label = "active"

[[record]]
compound = "O=C1c2ccccc2C(=O)N1SC(Cl)(Cl)Cl"
discrete_label = "inactive"

[[record]]
compound = "N#Cc1c(Cl)c(Cl)c(Cl)c(C#N)c1Cl"
discrete_label = "active"

[[record]]
compound = "CCOC1Oc2ccc(OS(C)(=O)=O)cc2C1(C)C (configuration not stated)"
discrete_label = "active"

[[record]]
compound = "Cc1[nH]c(=O)n(C(C)(C)C)c(=O)c1Cl"
discrete_label = "active"


Recorded test call requested for CC1(C)C(C=C(Cl)Cl)C1C(=O)OC(C#N)c1ccc(F)c(Oc2ccccc2)c1 (configuration not stated)
active

Recorded test call requested for ClC1C(Cl)C(Cl)C(Cl)C(Cl)C1Cl (configuration not stated)
inactive

----------
experiment: ATG_NFI_CIS: Attagene CIS-FACTORIAL HepG2 Assay for human Nuclear Factor I (NFI) (AID 2282989)
test context: HepG2 cis-regulatory reporter, NFI response element transcription; actives raise or lower the signal
Calls of active or inactive are those of the source. How the source made its calls: active means hit-call score of the fitted dose curve at least 0.9, where 1 is the maximum; inactive means score below 0.9.
Pick one and only one: class 1 for active, class 0 for inactive

[[record]]
compound = "CCOCN(C(=O)CCl)c1c(C)cccc1CC"
discrete_label = "class 0"


Recorded test call requested for CCC(C)(C)C(=O)OC1=C(c2ccc(Cl)cc2Cl)C(=O)OC12CCCCC2
class 0

Recorded test call requested for O=[N+]([O-])c1c(Cl)c(Cl)c(Cl)c(Cl)c1Cl
class 0

Recorded test call requested for COP(=O)(OC)OC=C(Cl)Cl
class 0

Recorded test call requested for CC(C)OC(=O)Nc1cccc(Cl)c1
class 0

Recorded test call requested for O=C(O)COc1ccc(Cl)cc1Cl
class 0

----------
experiment: ATG_BRE_CIS: Attagene CIS-FACTORIAL HepG2 Assay for human Bone Morphogenetic Protein (BMP) Response Element (BRE) (AID 2282933)
test context: HepG2 BMP response element reporter, Attagene transcription factor profiling; actives raise or lower the signal
Calls of active or inactive are those of the source. How the source made its calls: active means hit-call score of the fitted dose curve at least 0.9, where 1 is the maximum; inactive means score below 0.9.
Pick one and only one: active, inactive

Recorded test call requested for CCC(C)Nc1c([N+](=O)[O-])cc(C(C)(C)C)cc1[N+](=O)[O-] (centres undefined)
inactive

Recorded test call requested for CCN(CC)C(=O)SCc1ccc(Cl)cc1
active

Recorded test call requested for CC(C)(C)C(O)/C(=C\c1ccc(Cl)cc1Cl)n1cncn1 (centres undefined)
inactive

Recorded test call requested for O=[N+]([O-])c1c(Cl)c(Cl)c(Cl)c(Cl)c1Cl
inactive

----------
Read-out: Monocyte Chemoattractant Protein-1 (MCP1), CCL2 (gene 6347)
experiment: BSK_4H_MCP1: BioMAP Diversity Plus: 4H Assay for Monocyte Chemoattractant Protein-1 (MCP1) Biomarker Activity (AID 2283018)
test context: primary human endothelial cells (HUVEC); actives raise or lower the signal
Active and inactive are the calls of the source. The calls were made as follows: active = hit-call score of the fitted dose curve at least 0.9, where 1 is the maximum; inactive = score below 0.9.
Pick one and only one: true (1) = active, false (0) = inactive

Worked examples follow.
[[record]]
compound = "Cc1[nH]c(=O)n(C(C)(C)C)c(=O)c1Cl"
discrete_label = "false (0)"

[[record]]
compound = "O=C(O)CCCOc1ccc(Cl)cc1Cl"
discrete_label = "false (0)"

[[record]]
compound = "Cc1cc(C)nc(NC(=O)NS(=O)(=O)c2ccccc2C(=O)OC2COC2)n1"
discrete_label = "false (0)"

[[record]]
compound = "CC[C@H](C)[C@H]1O[C@]2(C=C[C@@H]1C)C[C@@H]1C[C@@H](C/C=C(\\C)[C@@H](O[C@H]3C[C@H](OC)[C@@H](O[C@H]4C[C@H](OC)[C@@H](O)[C@H](C)O4)[C@H](C)O3)[C@@H](C)/C=C/C=C3\\CO[C@@H]4[C@H](O)C(C)=C[C@@H](C(=O)O1)[C@]34O)O2 (tested in a mixture with another compound)"
discrete_label = "true (1)"

[[record]]
compound = "[2H]C1([2H])[n+]2ccccc2-c2cccc[n+]2C1([2H])[2H]"
discrete_label = "false (0)"

[[record]]
compound = "CNC(=O)/C=C(\\C)OP(=O)(OC)OC"
discrete_label = "false (0)"

[[record]]
compound = "COC(=O)c1ccccc1CS(=O)(=O)NC(=O)Nc1nc(OC)cc(OC)n1"
discrete_label = "false (0)"

[[record]]
compound = "CC(C)N(C(=O)COc1nnc(C(F)(F)F)s1)c1ccc(F)cc1"
discrete_label = "true (1)"

[[record]]
compound = "CCOCN(C(=O)CCl)c1c(C)cccc1CC"
discrete_label = "true (1)"

[[record]]
compound = "CCOC1Oc2ccc(OS(C)(=O)=O)cc2C1(C)C (stereo not drawn)"
discrete_label = "false (0)"


Recorded test call requested for N#CN
false (0)

Recorded test call requested for COc1nn(CSP(=S)(OC)OC)c(=O)s1
false (0)

Recorded test call requested for CC(C)(C)C(O)C(Oc1ccc(Cl)cc1)n1cncn1 (stereo not drawn)
false (0)

----------
Read-out: Interleukin 6 Receptor (IL6R), IL6R (gene 3570)
experiment: LTEA_HepaRG_IL6R: Life Technologies and Expression Analysis (LTEA) Assay for Interleukin 6 Receptor (IL6R) using HepaRG (AID 2283510)
test context: mRNA level, 48 h; actives raise or lower the signal
Calls of active or inactive are those of the source. Rule for the calls: active = hit-call score of the fitted dose curve at least 0.9, where 1 is the maximum; inactive = score below 0.9.
Pick one and only one: active, inactive

[[record]]
compound = "COP(=S)(OC)Oc1ccc(SC)c(C)c1"
discrete_label = "inactive"

[[record]]
compound = "CCN(CC)C(=O)SCc1ccc(Cl)cc1"
discrete_label = "inactive"

[[record]]
compound = "O=[N+]([O-])c1c(Cl)c(Cl)c(Cl)c(Cl)c1Cl"
discrete_label = "inactive"

[[record]]
compound = "N#Cc1c(Cl)c(Cl)c(Cl)c(C#N)c1Cl"
discrete_label = "inactive"

[[record]]
compound = "O=C(O)COc1ccc(Cl)cc1Cl"
discrete_label = "inactive"

[[record]]
compound = "O=C1c2ccccc2C(=O)N1SC(Cl)(Cl)Cl"
discrete_label = "inactive"

[[record]]
compound = "CNC(=O)Oc1ccccc1OC(C)C"
discrete_label = "inactive"

[[record]]
compound = "O=C(NC(=O)c1c(F)cccc1F)Nc1ccc(OC(F)(F)C(F)OC(F)(F)F)c(Cl)c1 (stereo unspecified)"
discrete_label = "inactive"

[[record]]
compound = "O=C(O)CCCOc1ccc(Cl)cc1Cl"
discrete_label = "inactive"

[[record]]
compound = "CC(C)(C)C(O)/C(=C\\c1ccc(Cl)cc1Cl)n1cncn1 (stereo unspecified)"
discrete_label = "active"


Then there is this compound:
Recorded test call requested for N#CN
inactive
